# reported viability, T/C; entries follow
System: 435261-313-R-J1-PDC tumor spheroid viability;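 further: spheroids exposed to compounds for 7 days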
Assay notes: Anticancer human tumor 435261-313-R-J1-PDC patient-derived colon adenocarcinoma cell line growth inhibition [PI3K]
Test conditions: second compound 0.316 µM; first compound 10 µM; stronger effect = lower value; spheroids with HUVEC and MSC
Test readout: viability, T/C (%)

{"columns": ["Compound", "Unit abbreviation", "Value measured"],
 "data": [
  ["C#Cc1c(F)ccc2cc(O)cc(-c3ncc4c(N5CC6CCC(C5)N6)nc(OCC56CCCN5CC(F)C6)nc4c3F)c12 (stereo not given) + CC(Nc1ncnc2nc[nH]c12)c1cc2cccc(Cl)c2c(=O)n1-c1ccccc1", "%", 33.2],
  ["CC1(C)CCC(CN2CCN(c3ccc(C(=O)NS(=O)(=O)c4ccc(NCC5CCOCC5)c([N+](=O)[O-])c4)c(Oc4cnc5[nH]ccc5c4)c3)CC2)=C(c2ccc(Cl)cc2)C1 + CC(Nc1ccc2c(c1)OCCn1cc(N3C(=O)OCC3C(F)F)nc1-2)C(N)=O", "%", 8.22],
  ["Cn1ncc(Cl)c1-c1cc(C(=O)NC(CN)Cc2cccc(F)c2)sc1Cl (stereo not given) + Cc1nc(NC(=O)N2CCCC2C(N)=O)sc1-c1ccnc(C(C)(C)C(F)(F)F)c1", "%", 7.01],
  ["CC(Cn1ccc(-c2ccc(C#N)c(Cl)c2)n1)NC(=O)c1cc(C(C)O)[nH]n1 (stereo not given) + CC(Nc1ncnc2nc[nH]c12)c1cc2cccc(Cl)c2c(=O)n1-c1ccccc1", "%", 81.6],
  ["CNC(=O)c1ccc(N2C(=S)N(c3ccc(C#N)c(C(F)(F)F)c3)C(=O)C2(C)C)cc1F + CC(Nc1ncnc2nc[nH]c12)c1cc2cccc(Cl)c2c(=O)n1-c1ccccc1", "%", 81.8],
  ["C=CC(=O)N1CCN(c2nc(=O)n(-c3c(C)ccnc3C(C)C)c3nc(-c4c(O)cccc4F)c(F)cc23)C(C)C1 (stereo not given) + Cc1nc(NC(=O)N2CCCC2C(N)=O)sc1-c1ccnc(C(C)(C)C(F)(F)F)c1", "%", 78.9],
  ["CC(Cn1ccc(-c2ccc(C#N)c(Cl)c2)n1)NC(=O)c1cc(C(C)O)[nH]n1 (stereo not given) + Cc1nc(NC(=O)N2CCCC2C(N)=O)sc1-c1ccnc(C(C)(C)C(F)(F)F)c1", "%", 49.4],
  ["CC1(C)CCC(CN2CCN(c3ccc(C(=O)NS(=O)(=O)c4ccc(NCC5CCOCC5)c([N+](=O)[O-])c4)c(Oc4cnc5[nH]ccc5c4)c3)CC2)=C(c2ccc(Cl)cc2)C1 + CC(Nc1ncnc2nc[nH]c12)c1cc2cccc(Cl)c2c(=O)n1-c1ccccc1", "%", 52.2],
  ["CC1(C)CCC(CN2CCN(c3ccc(C(=O)NS(=O)(=O)c4ccc(NCC5CCOCC5)c([N+](=O)[O-])c4)c(Oc4cnc5[nH]ccc5c4)c3)CC2)=C(c2ccc(Cl)cc2)C1 + Cc1nc(NC(=O)N2CCCC2C(N)=O)sc1-c1ccnc(C(C)(C)C(F)(F)F)c1", "%", 9.2],
  ["C=CC(=O)N1CCN(c2nc(=O)n(-c3c(C)ccnc3C(C)C)c3nc(-c4c(O)cccc4F)c(F)cc23)C(C)C1 (stereo not given) + CC(Nc1ncnc2nc[nH]c12)c1cc2cccc(Cl)c2c(=O)n1-c1ccccc1", "%", 108]
]}
